tested on: HepG2; experiment: cell viability relative to DMSO; higher = less toxic; conditions: 72 h; 100 nM
ATTRIBUTE MEASURED: cell viability

Ask | Consider the compound shown here: `COc1ccc(OC)c2c(=S)c3ccccc3[nH]c12` What is its recorded cell viability?
Reply | 94%

Ask | Fill blank: measured cell viability of the compound `CC[C@H]1OC(=O)C[C@@H](O)[C@H](C)[C@@H](O[C@@H]2O[C@H](C)C[C@H](N(C)C)[C@H]2O)[C@@H](CC=O)C[C@@H](C)C(=O)/C=C/[C@]2(C)O[C@H]2[C@@H]1C` is ____.
Reply | 98.4%

Ask | Entry under review: `Cc1ccc2c(c1)[C@]13CCCC[C@@H]1[C@H](C2)N(C)CC3` . Reported cell viability?
Reply | 99%

Ask | So what does the record say about cell viability for `O=c1c2ccccc2oc2ccccc12` ?
Reply | 93.5%
